System: OVCAR-3 ovarian
protocolDetails: NCI tumour cell line growth inhibition, 48 h
measurementKind: TGI

{"columns": ["compound", "measurementKind", "valueMeasured"],
 "data": [
  ["S=c1[nH]nc(-c2ccccc2)n1/N=C\\c1ccc(-c2ccc(Cl)cc2)o1", "TGI", "> 100 µM"],
  ["Cc1oc2c(C(=O)N/N=C\\c3ccc(O)cc3O)c[nH]c2c1C", "TGI", "> 39.4 µM"],
  ["COc1cc(-c2nc3ccc(N4CCN(C)CC4)cc3[nH]2)c(OC)c2[nH]c(CO)nc12", "TGI", "> 100 µM"],
  ["CCC(C)NC(=S)N/N=C(\\C)c1nc2ncccc2[nH]1 (configuration not stated)", "TGI", "> 100 µM"],
  ["CC1OC(O[C@H]2CC[C@]3(C)[C@H]4CC=C5[C@@H]6[C@@H](C)[C@H](C)CC[C@]6(C(=O)OC6OC(CO)C(O)C(O)C6O)CC[C@@]5(C(=O)O)[C@]4(C)CC[C@H]3C2(C)C)C(O)C(O)C1O (some centres not stated)", "TGI", "> 100 µM"],
  ["[2H]c1nc(C)nc([2H])c1-c1cc(NC[C@@H](C)c2cccc3c(C(=O)NC)ccnc23)ncn1", "TGI", "> 100 µM"],
  ["CC1CC2(OC2C)C(=O)OC2CCN(C)C/C=C(/COC(=O)C1(C)O)C2=O (configuration not stated)", "TGI", "> 100 µM"],
  ["CC(C)N(CCCNC(=O)Nc1ccc(C(C)(C)C)cc1)C[C@H]1O[C@@H](n2ccc3c(N)ncnc32)[C@H](O)[C@@H]1O", "TGI", "> 100 µM"],
  ["CCC(N)(C(=O)O)C(C)C (configuration not stated)", "TGI", "> 100 µM"],
  ["Nc1c(C(=O)Nc2cccc(C(F)(F)F)c2)sc2nc3c(cc12)C(O)CCC3 (configuration not stated)", "TGI", "> 49.3 µM"],
  ["NC(Cc1ccccc1)P(=O)(O)O (configuration not stated)", "TGI", "> 100 µM"],
  ["N#CC(C#N)=Cc1c[nH]c(=O)[nH]c1=O", "TGI", "> 100 µM"]
]}
